- Test system: MKN-45
- METHOD NOTES: In vitro cytotoxicity against MKN-45 (human stomach cancer) cells.
- Assay type: functional, cell-based
# pIC50 listing for each entry below
Quick note: pIC50 means taking -log10 of the concentration in moles per liter.

[
  {
    "COMPOUND": "O=C1c2c(c3c4ccccc4n(C4OC(CO)C(O)C(O)C4O)c3c3[nH]c4cc(O)ccc4c23)C(=O)N1NC(CO)CO (centres undefined)",
    "READOUT VALUE": 6.96
  },
  {
    "COMPOUND": "O=C1c2c(c3c4cccc(O)c4n(C4OC(CO)C(O)C(O)C4O)c3c3[nH]c4cc(O)ccc4c23)C(=O)N1NC(CO)CO (centres undefined)",
    "READOUT VALUE": 7.06
  },
  {
    "COMPOUND": "O=C1c2c(c3c4cc(O)ccc4n(C4OC(CO)C(O)C(O)C4O)c3c3[nH]c4cc(O)ccc4c23)C(=O)N1NC(CO)CO (centres undefined)",
    "READOUT VALUE": 6.92
  }
]

Shift focus to the following entry.
Fill in the recorded pIC50 for this compound, with MKN-45 as test system: O=C1c2c(c3c4ccc(O)cc4n(C4OC(CO)C(O)C(O)C4O)c3c3[nH]c4c(O)cccc4c23)C(=O)N1NC(CO)CO (centres undefined)
7.19

----------
- Test system: Mus musculus
- METHOD NOTES: Tested for anticancer effect on MKN-45 human stomach cancer cells implanted subcutaneously into flanks of nude mice.
- Format: functional
TEST READOUT: LD10 (mg m**-2)
Please state the figure in mg m**-2; there is no need to write the unit.

[
  {
    "COMPOUND": "O=C1c2c(c3c4cccc(O)c4n(C4OC(CO)C(O)C(O)C4O)c3c3[nH]c4c(O)cccc4c23)C(=O)N1NC(CO)CO (centres undefined)",
    "RESULT UNITS": "mg m**-2",
    "LD10": 390
  },
  {
    "COMPOUND": "O=C1c2c(c3c4ccc(O)cc4n(C4OC(CO)C(O)C(O)C4O)c3c3[nH]c4c(O)cccc4c23)C(=O)N1NC(CO)CO (centres undefined)",
    "RESULT UNITS": "mg m**-2",
    "LD10": 350
  }
]

Which LD10 is listed for O=C1c2c(c3c4ccc(O)cc4n(C4OC(CO)C(O)C(O)C4O)c3c3[nH]c4ccc(O)cc4c23)C(=O)N1NC(CO)CO (centres undefined) ?
1000
